Counter-ions that a name gives are not always drawn.
Each entry below carries its recorded melting point.

These recorded examples may help you get a feel for the data.
>  <Compound>
COc1cccc2c1CC(N(CCCc1c[nH]c3ccc(F)cc13)C1CC1)CO2 (stereo not drawn) (as salt: hydrochloride) [Compound 41]

>  <melting point>
115 °C (dec.)

$$$$
>  <Compound>
COc1cccc2c(CCCNC3COc4c(F)ccc(C(N)=O)c4C3)c[nH]c12 (stereo not drawn) (as salt: hydrochloride) [Compound 99]

>  <melting point>
196 to 198 °C

$$$$
>  <Compound>
CCCCN(CCCc1coc2c(OC)cccc12)C1COc2c(F)ccc(C(N)=O)c2C1 (stereo not drawn) (as salt: hydrochloride) [Compound 166]

>  <melting point>
110 to 117 °C (dec.)

$$$$
>  <Compound>
CNC(=O)c1ccc(F)c2c1C[C@H](N(CCCCc1c[nH]c3ccc(F)cc13)C1CCC1)CO2 (as salt: hydrochloride) [Compound 145a]

>  <melting point>
125 °C (dec.)

$$$$
>  <Compound>
COc1cccc2c1CC(N(CCCc1c[nH]c3ccc(F)cc13)C1CCC1)CO2 (stereo not drawn) (as salt: hydrochloride) [Compound 34]

>  <melting point>
70.5 °C (dec.)

$$$$

QUERY: Recorded melting point for CCCN(C(C)CCCc1c[nH]c2ccc(F)cc12)C1COc2c(F)ccc(C(N)=O)c2C1 (single isomer, unassigned; (+)) (as salt: hydrochloride) [Compound 14a] , please?
RESULT: 148 to 150 °C

====

Target: cloned human 5-HT1A receptors (Homo sapiens, UniProt P08908)
Construct: expressed in transfected cells
Sequence (P08908 whole entry): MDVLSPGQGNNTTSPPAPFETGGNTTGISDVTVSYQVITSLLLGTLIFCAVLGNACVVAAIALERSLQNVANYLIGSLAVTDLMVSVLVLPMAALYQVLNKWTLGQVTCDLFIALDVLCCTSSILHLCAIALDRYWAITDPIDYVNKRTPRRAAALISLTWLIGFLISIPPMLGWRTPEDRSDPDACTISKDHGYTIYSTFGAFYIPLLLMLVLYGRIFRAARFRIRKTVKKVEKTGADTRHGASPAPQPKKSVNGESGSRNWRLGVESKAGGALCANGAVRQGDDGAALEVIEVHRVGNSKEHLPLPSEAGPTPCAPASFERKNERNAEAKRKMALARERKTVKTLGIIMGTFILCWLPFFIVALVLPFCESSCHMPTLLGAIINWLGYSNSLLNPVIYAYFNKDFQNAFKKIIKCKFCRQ
Experiment: 35S-GTPγS binding assay, 5-HT1A function
Assay type: biochemical
Conditions: maximum stimulatory effect, in brackets after EC50; read-out: 5-HT1A Function GTPγS (Emax)
Decision: Emax compared against 80%; not below it gives label 1, below it gives label 0.

# count of solved cases: 5
>  <Compound>
COc1cccc2c1CC(N[C@H]1CC[C@@H](c3c[nH]c4ccc(C#N)cc43)CC1)CO2 (relative stereo) [Compound 180a]

>  <Target entity>
cloned human 5-HT1A receptors (Homo sapiens, UniProt P08908)

>  <Class assignment>
label 1

$$$$
>  <Compound>
NC(=O)c1ccc(F)c2c1CC(NCCCc1c[nH]c3ccc(F)cc13)CO2 (single isomer, unassigned; (+)) [Compound 1a]

>  <Target entity>
cloned human 5-HT1A receptors (Homo sapiens, UniProt P08908)

>  <Class assignment>
label 1

$$$$
>  <Compound>
CCN(CCCCc1c[nH]c2ccc(F)cc12)C1COc2cccc(OC)c2C1 (stereo not shown)

>  <Target entity>
cloned human 5-HT1A receptors (Homo sapiens, UniProt P08908)

>  <Class assignment>
label 1

$$$$
>  <Compound>
NC(=O)c1ccc(F)c2c1CC(N(CC1CCc3[nH]c4ccc(F)cc4c3C1)C1CCC1)CO2 (single isomer, unassigned; (+)) [Compound 174c]

>  <Target entity>
cloned human 5-HT1A receptors (Homo sapiens, UniProt P08908)

>  <Class assignment>
label 0

$$$$
>  <Compound>
NC(=O)c1ccc(F)c2c1OCC(NCCCc1c[nH]c3ccc(F)cc13)C2 (stereo not shown)

>  <Target entity>
cloned human 5-HT1A receptors (Homo sapiens, UniProt P08908)

>  <Class assignment>
label 1

$$$$

Please examine the following record next.
QUERY: Emax >= 80% for CCCN(CCC(O)c1csc2ccc(F)cc12)C1COc2c(F)ccc(C(N)=O)c2C1 (stereo not shown) ?
RESULT: label 0

Source of measurements: patent US20050032873A1
